target: Cathepsin S (Homo sapiens); experiment: Inhibition of human recombinant CatS assessed as suppression of enzyme-mediated Z-Val-Val-Arg-AMC cleavage by QFRET assay
Sequence (P25774 whole entry): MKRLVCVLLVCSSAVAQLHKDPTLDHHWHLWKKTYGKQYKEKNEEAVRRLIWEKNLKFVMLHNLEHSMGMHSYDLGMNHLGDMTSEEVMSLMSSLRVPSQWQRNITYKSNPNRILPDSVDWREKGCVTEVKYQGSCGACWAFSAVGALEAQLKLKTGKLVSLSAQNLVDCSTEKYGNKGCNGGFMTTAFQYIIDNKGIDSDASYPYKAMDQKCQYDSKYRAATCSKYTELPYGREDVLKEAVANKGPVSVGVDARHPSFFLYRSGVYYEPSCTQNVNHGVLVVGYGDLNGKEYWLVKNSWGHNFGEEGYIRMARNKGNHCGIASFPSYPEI
pIC50: −log10 of the molar value.
Attribute: pIC50

>>> val("CS(=O)(=O)c1cccc2c3c([nH]c12)CCN(C(=O)[C@@H]1CCCC[C@H]1C(=O)NC1(C#N)CC1)C3")
"< 5.40"
>>> val("CN(C)C(=O)[C@@H]1CCCC[C@H]1C(=O)NCC#N")
5.43
>>> val("N#CC1(NC(=O)[C@@H]2CCCC[C@H]2C(=O)N2CCc3[nH]c4ncccc4c3C2)CC1")
"< 5.40"
>>> val("N#CC1(NC(=O)[C@@H]2CCCC[C@H]2C(=O)N2CCc3[nH]c4ccc(C(F)(F)F)cc4c3C2)CC1")
"< 5.40"

Q: Item COc1cccc2c3c([nH]c12)CCN(C(=O)[C@@H]1CCCC[C@H]1C(=O)NC1(C#N)CC1)C3 has what recorded pIC50?
Ans: < 5.40

Q: For N#CC1(NC(=O)[C@@H]2CCCC[C@H]2C(=O)N2CCc3[nH]c4ccccc4c3C2)CC1 then?
Ans: < 5.40

Q: CSc1cccc2c3c([nH]c12)CCN(C(=O)[C@@H]1CCCC[C@H]1C(=O)NC1(C#N)CC1)C3 , same question.
Ans: < 5.40

* * *

test: Intrinsic clearance in rat liver microsomes assessed as metabolic turnover
Readout Type: microsomal CLint (µL/min/mg)
Record the value in µL/min/mg, omitting the unit from your answer.

>>> val("CSc1cccc2c3c([nH]c12)CCN(C(=O)[C@@H]1CCCC[C@H]1C(=O)NC1(C#N)CC1)C3")
303

Q: Suppose we examine the compound CS(=O)(=O)c1cccc2c3c([nH]c12)CCN(C(=O)[C@@H]1CCCC[C@H]1C(=O)NC1(C#N)CC1)C3 ; what microsomal CLint value has been reported?
Ans: 23

Q: Likewise for COc1cccc2c3c([nH]c12)CCN(C(=O)[C@@H]1CCCC[C@H]1C(=O)NC1(C#N)CC1)C3 ?
Ans: 67

Q: Same read-out for Cc1cccc2c3c([nH]c12)CCN(C(=O)[C@@H]1CCCC[C@H]1C(=O)NC1(C#N)CC1)C3 ?
Ans: 179

Q: Here is the next compound: N#CC1(NC(=O)[C@@H]2CCCC[C@H]2C(=O)N2CCc3[nH]c4c(F)cccc4c3C2)CC1
Ans: 311

Q: Same again, this time with N#CC1(NC(=O)[C@@H]2CCCC[C@H]2C(=O)N2CCc3[nH]c4c(Cl)cccc4c3C2)CC1
Ans: 226

Q: Ok, now N#CCNC(=O)[C@@H]1CCCC[C@H]1C(=O)N1CCc2ccccc2C1
Ans: 145

* * *

assay: Intrinsic clearance in human hepatocytes assessed as metabolic turnover measured per 10^6 cells
Readout Type: hepatocyte CLint

>>> val("N#CC1(NC(=O)[C@@H]2CCCC[C@H]2C(=O)N2CCc3[nH]c4ccc(F)cc4c3C2)CC1")
"< 2.5 µL/min/1e6 cells"

In the following, a different molecule is considered.
Q: Suppose we examine the molecule COc1cccc2c3c([nH]c12)CCN(C(=O)[C@@H]1CCCC[C@H]1C(=O)NC1(C#N)CC1)C3 ; what hepatocyte CLint value has been reported?
Ans: 5.3 µL/min/1e6 cells

* * *

Target: Cathepsin K (Homo sapiens)
Sequence (P43235 whole entry): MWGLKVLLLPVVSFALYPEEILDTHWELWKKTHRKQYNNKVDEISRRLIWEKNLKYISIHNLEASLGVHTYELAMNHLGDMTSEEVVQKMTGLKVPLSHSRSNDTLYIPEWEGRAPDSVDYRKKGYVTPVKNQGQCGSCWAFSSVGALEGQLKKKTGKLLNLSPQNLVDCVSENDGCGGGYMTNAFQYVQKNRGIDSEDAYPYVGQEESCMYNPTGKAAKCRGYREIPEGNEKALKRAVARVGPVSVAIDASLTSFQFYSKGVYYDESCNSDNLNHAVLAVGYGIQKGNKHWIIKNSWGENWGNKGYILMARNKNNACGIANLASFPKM
Assay: Inhibition of human recombinant CatK assessed as suppression of enzyme-mediated Z-Phe-Arg-AMC cleavage incubated for 1 hrs by QFRET assay
Readout Type: IC50 (nM)
Number only, in nM; omit the unit.

As a guide, the following entries are already answered.
>>> val("CC(C)c1ccc2[nH]c3c(c2c1)CN(C(=O)[C@@H]1CCCC[C@H]1C(=O)NC1(C#N)CC1)CC3")
50
>>> val("N#CC1(NC(=O)[C@@H]2CCCC[C@H]2C(=O)N2CCc3[nH]c4c(OC(F)(F)F)cccc4c3C2)CC1")
2
>>> val("COc1ccccc1C(C#N)NC(=O)[C@@H]1CCCC[C@H]1C(=O)N1CCN(Cc2ccc(F)cc2)CC1 (some centres undefined)")
1
>>> val("CSc1cccc2c3c([nH]c12)CCN(C(=O)[C@@H]1CCCC[C@H]1C(=O)NC1(C#N)CC1)C3")
4

Q: Tell me the measured IC50 of N#CCNC(=O)[C@@H]1CCCC[C@H]1C(=O)N1CCc2ccccc2C1 , please.
Ans: 2

Q: # repeat for C[C@H](C#N)NC(=O)[C@@H]1CCCC[C@H]1C(=O)N1CCc2[nH]c3ccc(F)cc3c2C1
Ans: 16.2
